target: PI3Kb (Homo sapiens, UniProt P42338); assay: Kinase inhibition assay (HotSpot); assay type: biochemical; conditions: 10 μM ATP; read-out: Compound IC50, PI3Kb
Sequence (P42338 whole entry): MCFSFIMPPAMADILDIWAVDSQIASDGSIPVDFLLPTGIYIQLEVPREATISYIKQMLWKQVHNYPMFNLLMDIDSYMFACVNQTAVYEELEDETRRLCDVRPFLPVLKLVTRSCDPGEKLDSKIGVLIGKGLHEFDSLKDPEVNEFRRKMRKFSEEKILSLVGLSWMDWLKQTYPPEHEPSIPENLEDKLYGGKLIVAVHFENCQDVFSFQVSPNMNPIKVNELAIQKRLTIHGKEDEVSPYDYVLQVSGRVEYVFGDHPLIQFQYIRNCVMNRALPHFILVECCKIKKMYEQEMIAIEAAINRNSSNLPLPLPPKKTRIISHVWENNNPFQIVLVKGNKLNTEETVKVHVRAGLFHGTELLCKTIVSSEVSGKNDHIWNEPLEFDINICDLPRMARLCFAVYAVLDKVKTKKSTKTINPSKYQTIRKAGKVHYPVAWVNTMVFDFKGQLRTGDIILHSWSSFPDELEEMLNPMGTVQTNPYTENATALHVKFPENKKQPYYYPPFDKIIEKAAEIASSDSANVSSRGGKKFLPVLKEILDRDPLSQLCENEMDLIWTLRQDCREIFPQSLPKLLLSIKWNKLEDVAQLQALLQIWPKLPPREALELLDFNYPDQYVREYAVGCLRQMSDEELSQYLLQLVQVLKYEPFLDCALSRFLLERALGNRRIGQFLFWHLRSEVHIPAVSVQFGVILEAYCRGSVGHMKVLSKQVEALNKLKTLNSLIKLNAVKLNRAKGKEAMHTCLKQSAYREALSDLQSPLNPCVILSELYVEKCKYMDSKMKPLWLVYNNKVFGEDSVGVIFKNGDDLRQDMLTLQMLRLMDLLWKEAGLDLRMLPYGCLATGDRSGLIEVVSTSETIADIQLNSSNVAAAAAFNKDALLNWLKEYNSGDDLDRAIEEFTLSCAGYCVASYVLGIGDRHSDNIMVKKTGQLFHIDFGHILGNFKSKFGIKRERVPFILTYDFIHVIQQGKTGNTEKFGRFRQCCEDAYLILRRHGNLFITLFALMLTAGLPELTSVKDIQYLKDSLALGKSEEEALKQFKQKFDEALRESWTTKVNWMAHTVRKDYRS
Sequence (P27986 whole entry partner): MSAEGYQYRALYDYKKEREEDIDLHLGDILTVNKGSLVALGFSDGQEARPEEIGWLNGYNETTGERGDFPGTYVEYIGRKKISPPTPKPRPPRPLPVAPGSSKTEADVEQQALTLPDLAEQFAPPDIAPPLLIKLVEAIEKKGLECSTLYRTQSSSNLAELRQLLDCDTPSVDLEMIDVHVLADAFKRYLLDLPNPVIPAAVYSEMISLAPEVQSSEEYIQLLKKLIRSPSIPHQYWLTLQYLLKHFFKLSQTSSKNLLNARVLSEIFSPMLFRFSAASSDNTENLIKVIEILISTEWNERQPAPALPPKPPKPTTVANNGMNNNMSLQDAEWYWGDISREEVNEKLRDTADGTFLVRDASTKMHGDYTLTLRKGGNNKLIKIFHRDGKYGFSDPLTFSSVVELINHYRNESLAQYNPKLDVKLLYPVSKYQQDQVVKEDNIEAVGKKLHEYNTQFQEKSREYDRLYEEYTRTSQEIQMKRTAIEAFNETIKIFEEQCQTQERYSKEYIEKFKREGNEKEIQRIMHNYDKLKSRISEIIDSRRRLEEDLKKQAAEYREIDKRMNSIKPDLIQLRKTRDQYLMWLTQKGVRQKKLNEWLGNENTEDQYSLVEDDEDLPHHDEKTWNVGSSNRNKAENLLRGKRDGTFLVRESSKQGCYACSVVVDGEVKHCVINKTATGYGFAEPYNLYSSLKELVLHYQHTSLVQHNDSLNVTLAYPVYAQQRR
measured parameter: pIC50
Would you please state pIC50, meaning minus log10 of the concentration in mol/L, as a bare number?

Q: Which pIC50 value belongs to COc1cc(-c2cc(=O)c3c(O)cc(O)c(CC=C(C)C)c3o2)ccc1O [FBL-03G] ?
Result: 6.87

###

molecular target: ABL2 (Homo sapiens, UniProt P42684); assay: Kinase inhibition assay (HotSpot); assay type: biochemical; conditions: 10 μM ATP; read-out: Compound IC50, ABL2
Sequence (P42684 whole entry): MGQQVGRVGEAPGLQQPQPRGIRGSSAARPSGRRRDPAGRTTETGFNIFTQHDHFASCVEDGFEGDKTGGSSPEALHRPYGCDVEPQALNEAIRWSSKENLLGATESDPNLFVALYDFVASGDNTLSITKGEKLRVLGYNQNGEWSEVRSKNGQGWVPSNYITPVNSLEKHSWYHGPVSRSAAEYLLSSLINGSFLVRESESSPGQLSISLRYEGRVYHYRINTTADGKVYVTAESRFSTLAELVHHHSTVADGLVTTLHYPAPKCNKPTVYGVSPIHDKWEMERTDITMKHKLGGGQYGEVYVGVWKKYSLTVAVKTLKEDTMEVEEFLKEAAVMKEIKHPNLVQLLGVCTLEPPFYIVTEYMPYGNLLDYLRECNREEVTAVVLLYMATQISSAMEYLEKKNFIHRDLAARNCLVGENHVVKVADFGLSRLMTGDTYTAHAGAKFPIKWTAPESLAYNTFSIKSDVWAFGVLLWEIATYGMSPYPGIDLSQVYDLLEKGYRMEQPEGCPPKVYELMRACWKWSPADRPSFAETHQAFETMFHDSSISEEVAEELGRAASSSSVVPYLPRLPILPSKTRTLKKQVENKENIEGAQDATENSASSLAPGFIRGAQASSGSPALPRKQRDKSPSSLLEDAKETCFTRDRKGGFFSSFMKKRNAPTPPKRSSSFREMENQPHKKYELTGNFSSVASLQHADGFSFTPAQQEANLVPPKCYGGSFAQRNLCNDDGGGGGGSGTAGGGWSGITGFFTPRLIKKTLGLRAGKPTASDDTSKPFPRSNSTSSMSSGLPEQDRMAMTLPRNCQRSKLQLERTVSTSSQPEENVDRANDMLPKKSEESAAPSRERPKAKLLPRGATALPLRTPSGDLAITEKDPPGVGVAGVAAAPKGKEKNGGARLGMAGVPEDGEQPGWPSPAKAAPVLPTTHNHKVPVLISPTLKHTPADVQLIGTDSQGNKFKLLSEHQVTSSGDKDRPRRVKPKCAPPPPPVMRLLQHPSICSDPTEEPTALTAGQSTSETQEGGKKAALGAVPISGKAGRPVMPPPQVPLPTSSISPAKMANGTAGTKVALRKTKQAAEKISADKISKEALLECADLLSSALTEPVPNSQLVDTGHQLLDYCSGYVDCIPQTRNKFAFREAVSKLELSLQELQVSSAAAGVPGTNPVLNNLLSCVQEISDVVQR
measured parameter: pIC50
Would you please state pIC50, meaning minus log10 of the concentration in mol/L, as a bare number?

Q: ABL2 (Homo sapiens, UniProt P42684) / pIC50 / COc1cc(-c2cc(=O)c3c(O)cc(O)c(CC=C(C)C)c3o2)ccc1O [FBL-03G] : value?
Result: 6.56

Data origin, for the record: patent US20210346339A1
